Origin of the recorded values: ChEMBL document CHEMBL3351507

Test system: CCRF-CEM
measurement.notes: Resistance index, ratio of GI50 for human vinblastin-resistant CEM cells to GI50 for human CEM cells
Format: functional
quantity.kind: Ratio
Answers are plain numbers.

In the examples that follow, each entry is paired with its recorded Ratio.
compound: COc1ccc2c(c1)nnc1c3cccnc3[nH]c21
Ratio: 1.57

compound: COc1ccc2c(c1)nnn1c3ncccc3c(N=O)c21
Ratio: 2

compound: CC[C@]1(O)C[C@@H]2CN(CCc3c([nH]c4ccccc34)[C@@](C(=O)OC)(c3cc4c(cc3OC)N(C)[C@H]3[C@@](O)(C(=O)OC)[C@H](OC(C)=O)[C@]5(CC)C=CCN6CC[C@]43[C@@H]65)C2)C1 [VINBLASTINE]
Ratio: 525

Record COc1cc2nnn3c4ncccc4c(N=O)c3c2cc1OC : what is its Ratio with CCRF-CEM? 2.13

====

Tested on: NCI-H522
measurement.notes: Cytotoxicity against human NCI-H522 cells assessed as growth inhibition after 72 hrs by MTT assay
Assay type: functional
condition.details: NCI-H522, 72 h
Mark rule met for GI50 under 1000 nM, rule not met if at or over.

smiles: COc1cc2nnc3c4cccnc4[nH]c3c2cc1OC
label.class: rule not met

Identify whether the molecule O=Nc1c2cccnc2n2nnc3ccc(Cl)cc3c12 records GI50 below 1000 nM. rule met

Request: COc1ccc2c(c1)nnc1c3cccnc3[nH]c21 rule not met

Request: COc1ccc2c(c1)nnn1c3ncccc3c(N=O)c21 rule not met

Request: COc1cc2nnn3c4ncccc4c(N=O)c3c2cc1OC rule not met

====

For each of the compounds below, state its GI50.
Tested on: CCRF-CEM
measurement.notes: Cytotoxicity against human CEM cells assessed as growth inhibition after 72 hrs by MTT assay
Format: functional
Answers are plain numbers, in nM.

In the examples that follow, each entry is paired with its recorded GI50.
smiles: COc1ccc2c(c1)nnn1c3ncccc3c(N=O)c21
GI50, nM: 220

smiles: COc1cc2nnn3c4ncccc4c(N=O)c3c2cc1OC
GI50, nM: 240

smiles: CC[C@]1(O)C[C@@H]2CN(CCc3c([nH]c4ccccc34)[C@@](C(=O)OC)(c3cc4c(cc3OC)N(C)[C@H]3[C@@](O)(C(=O)OC)[C@H](OC(C)=O)[C@]5(CC)C=CCN6CC[C@]43[C@@H]65)C2)C1
GI50, nM: 4

Kindly consider the entry below.
I'd like to know its GI50. The compound in question is COc1ccc2c(c1)nnc1c3cccnc3[nH]c21 650

====

For each of the molecules below, state its GI50.
measurement.notes: Cytotoxicity against human OVCAR5 cells assessed as growth inhibition after 72 hrs by MTT assay
Assay type: functional
condition.details: OVCAR-5, 72 h
Returns: string containing the numeric result and its unit.

Give GI50 for all molecules that follow.
1. COc1cc2nnn3c4ncccc4c(N=O)c3c2cc1OC
2. O=Nc1c2cccnc2n2nnc3ccc(Cl)cc3c12
3. COc1cc2nnc3c4cccnc4[nH]c3c2cc1OC
4. COc1ccc2c(c1)nnn1c3ncccc3c(N=O)c21
5. COc1ccc2c(c1)nnc1c3cccnc3[nH]c21

2.69 µM
1.38 µM
2.53 µM
8.02 µM
5.72 µM

====

For each of the molecules below, state its GI50.
System: HL-60(TB)
measurement.notes: Cytotoxicity against human HL-60(TB) cells assessed as growth inhibition after 72 hrs by […] assay
Format: functional
condition.details: HL-60, 72 h
Answers are plain numbers, in nM.

In the examples that follow, each entry is paired with its recorded GI50.
smiles: COc1ccc2c(c1)nnc1c3cccnc3[nH]c21
GI50 / nM: 160
//
smiles: O=Nc1c2cccnc2n2nnc3ccc(Cl)cc3c12
GI50 / nM: 300
//
smiles: COc1ccc2c(c1)nnn1c3ncccc3c(N=O)c21
GI50 / nM: 43

Give GI50 for all molecules that follow.
1. COc1cc2nnc3c4cccnc4[nH]c3c2cc1OC
2. COc1cc2nnn3c4ncccc4c(N=O)c3c2cc1OC

[190, 40]

====

For each of the compounds below, state its GI50.
System: HOP-92
measurement.notes: Cytotoxicity against human HOP92 cells assessed as growth inhibition after 72 hrs by MTT assay
Assay type: functional
condition.details: HOP-92, 72 h
Returns: string containing the numeric result and its unit.

smiles: COc1ccc2c(c1)nnc1c3cccnc3[nH]c21
GI50: 0.082 µM
--
smiles: O=Nc1c2cccnc2n2nnc3ccc(Cl)cc3c12
GI50: 0.1 µM
--
smiles: COc1ccc2c(c1)nnn1c3ncccc3c(N=O)c21
GI50: 0.042 µM
--
smiles: COc1cc2nnc3c4cccnc4[nH]c3c2cc1OC
GI50: 0.21 µM

Kindly consider the entry below.
I'd like to know its GI50. The compound in question is COc1cc2nnn3c4ncccc4c(N=O)c3c2cc1OC 0.039 µM

====

System: Malme-3M
measurement.notes: Cytotoxicity against human MALME-3M cells assessed as growth inhibition after 72 hrs by MTT assay
Format: functional
quantity.kind: GI50 (nM)
Give bare numbers, in nM.

Give GI50 for all compounds that follow.
1. COc1ccc2c(c1)nnc1c3cccnc3[nH]c21
2. COc1cc2nnn3c4ncccc4c(N=O)c3c2cc1OC
3. COc1cc2nnc3c4cccnc4[nH]c3c2cc1OC
4. O=Nc1c2cccnc2n2nnc3ccc(Cl)cc3c12
5. COc1ccc2c(c1)nnn1c3ncccc3c(N=O)c21

1060
2890
2280
1220
770

====

Tested on: TK-10
measurement.notes: Cytotoxicity against human TK10 cells assessed as growth inhibition after 72 hrs by MTT assay
Assay type: functional
condition.details: TK-10, 72 h
Mark class 1 for GI50 under 5 µM, class 0 if at or over.

See these solved cases before continuing.
smiles: COc1ccc2c(c1)nnc1c3cccnc3[nH]c21
label.class: class 1

smiles: COc1cc2nnc3c4cccnc4[nH]c3c2cc1OC
label.class: class 1

smiles: COc1cc2nnn3c4ncccc4c(N=O)c3c2cc1OC
label.class: class 0

Identify whether the compound O=Nc1c2cccnc2n2nnc3ccc(Cl)cc3c12 records GI50 below 5 µM. class 1

====

tgt: DNA topoisomerase 1 (Homo sapiens) (UniProt P11387)
Sequence (P11387 whole entry): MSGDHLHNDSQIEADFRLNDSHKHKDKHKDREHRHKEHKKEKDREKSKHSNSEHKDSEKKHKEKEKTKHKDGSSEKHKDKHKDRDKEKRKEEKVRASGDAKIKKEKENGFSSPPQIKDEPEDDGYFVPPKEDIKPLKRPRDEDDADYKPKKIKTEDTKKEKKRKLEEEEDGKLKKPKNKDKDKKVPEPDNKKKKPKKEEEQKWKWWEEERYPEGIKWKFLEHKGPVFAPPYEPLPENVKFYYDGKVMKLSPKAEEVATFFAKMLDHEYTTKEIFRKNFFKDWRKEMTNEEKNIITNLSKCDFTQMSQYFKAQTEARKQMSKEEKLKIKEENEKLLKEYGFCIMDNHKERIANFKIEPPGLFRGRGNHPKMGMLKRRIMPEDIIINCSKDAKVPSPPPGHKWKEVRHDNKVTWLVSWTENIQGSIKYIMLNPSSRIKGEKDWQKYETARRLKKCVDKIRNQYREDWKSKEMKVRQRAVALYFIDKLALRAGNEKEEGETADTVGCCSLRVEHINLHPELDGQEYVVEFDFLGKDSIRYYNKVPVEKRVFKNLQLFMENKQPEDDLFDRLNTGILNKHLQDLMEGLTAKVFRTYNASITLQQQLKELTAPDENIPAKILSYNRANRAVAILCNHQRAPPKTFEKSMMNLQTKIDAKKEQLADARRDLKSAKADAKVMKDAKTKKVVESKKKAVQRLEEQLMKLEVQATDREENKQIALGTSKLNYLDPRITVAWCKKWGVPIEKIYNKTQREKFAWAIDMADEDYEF
measurement.notes: Inhibition of human DNA topoisomerase 1-mediated DNA single strand cleavage at 5 to 100 uM after 30 mins by agarose gel electrophoresis relative to untreated control
Calls of active or inactive are those of the source. The calls are words filed in the database; no cut-off is given here.
quantity.kind: Activity

smiles: COc1cc2nnn3c4ncccc4c(N=O)c3c2cc1OC
quantity.kind: Activity
result: Active
//
smiles: CC[C@@]1(O)C(=O)OCc2c1cc1n(c2=O)Cc2cc3ccccc3nc2-1
quantity.kind: Activity
result: Active
//
smiles: COc1ccc2c(c1)nnc1c3cccnc3[nH]c21
quantity.kind: Activity
result: Active
//
smiles: COc1ccc2c(c1)nnn1c3ncccc3c(N=O)c21
quantity.kind: Activity
result: Active

====

Tested on: KM12
measurement.notes: Cytotoxicity against human KM12 cells assessed as growth inhibition after 72 hrs by MTT assay
Assay type: functional
condition.details: KM12, 72 h
quantity.kind: GI50 (nM)
Answers are plain numbers, in nM.

In the examples that follow, each entry is paired with its recorded GI50.
smiles: O=Nc1c2cccnc2n2nnc3ccc(Cl)cc3c12
GI50 / nM: 910
//
smiles: COc1cc2nnc3c4cccnc4[nH]c3c2cc1OC
GI50 / nM: 1910
//
smiles: COc1ccc2c(c1)nnn1c3ncccc3c(N=O)c21
GI50 / nM: 1030

Give GI50 for all molecules that follow.
1. COc1ccc2c(c1)nnc1c3cccnc3[nH]c21
2. COc1cc2nnn3c4ncccc4c(N=O)c3c2cc1OC

1. 1220
2. 1380

====

For each of the molecules below, state its GI50.
Tested on: SK-MEL-28
measurement.notes: Cytotoxicity against human SK-MEL-28 cells assessed as growth inhibition after 72 hrs by MTT assay
Assay type: functional
condition.details: SK-MEL-28, 72 h
Returns: string containing the numeric result and its unit.

In the examples that follow, each entry is paired with its recorded GI50.
smiles: COc1ccc2c(c1)nnn1c3ncccc3c(N=O)c21
quantity.kind: GI50
result: 3.48 µM
//
smiles: COc1cc2nnn3c4ncccc4c(N=O)c3c2cc1OC
quantity.kind: GI50
result: 9.1 µM
//
smiles: COc1ccc2c(c1)nnc1c3cccnc3[nH]c21
quantity.kind: GI50
result: 11.8 µM
//
smiles: O=Nc1c2cccnc2n2nnc3ccc(Cl)cc3c12
quantity.kind: GI50
result: 1.06 µM

I'd like to know its GI50. The molecule in question is COc1cc2nnc3c4cccnc4[nH]c3c2cc1OC 4.49 µM

====

Test system: SNB-75
measurement.notes: Cytotoxicity against human SNB75 cells assessed as growth inhibition after 72 hrs by MTT assay
Type: functional
condition.details: SNB-75, 72 h
For each of the compounds below, state its GI50.
One number for each entry, in nM.

In the examples that follow, each entry is paired with its recorded GI50.
smiles: COc1cc2nnc3c4cccnc4[nH]c3c2cc1OC
unit.annotation: nM
GI50: 1480
//
smiles: O=Nc1c2cccnc2n2nnc3ccc(Cl)cc3c12
unit.annotation: nM
GI50: 1420
//
smiles: COc1ccc2c(c1)nnn1c3ncccc3c(N=O)c21
unit.annotation: nM
GI50: 850
//
smiles: COc1cc2nnn3c4ncccc4c(N=O)c3c2cc1OC
unit.annotation: nM
GI50: 2250

Kindly consider the entry below.
I'd like to know its GI50. The compound in question is COc1ccc2c(c1)nnc1c3cccnc3[nH]c21 640
